System: HCT-15 colon
Protocol Details: NCI tumour cell line growth inhibition, 48 h
Listed here are compounds together with their documented TGI.

Compound	TGI
CNc1nc2c(C)ccc3[nH]c(N(C)C)nc3c-2n1	> 100 µM
CC(C)(O)CCc1ccc(O)c2c(=O)c3c(O)c4c(cc3oc12)O[C@H]1OC=C[C@@]41O	14.6 µM
N#CCCN(CCC#N)c1ccc(C(N=Nc2ccc(Cl)cc2)=Nc2ccc(Cl)cc2)cc1	23.7 µM
Cc1ccc(S(=O)(=O)SCc2ccccc2)cc1	28.6 µM
COC1=CC(=O)NCCN1	> 100 µM
Cc1cc(=O)c2ccccc2n1CCCCCCCCCCn1c(C)cc(=O)c2ccccc21	> 100 µM
S=C(c1c[nH]c2ccccc12)N1CCCCC1	> 100 µM
COc1ccc(C(=O)OC2C(OC3C(O)COC(O[C@H]4C[C@H]5[C@@H]6CC=C7C[C@@H](O)CC[C@]7(C)[C@H]6CC[C@]5(C)[C@H]4[C@H](C)C(=O)CCC(C)C)C3OC(C)=O)OCC(O)C2O)cc1 (stereo not given in full)	0.628 µM
COC(=O)C1C(O)C(C)C(O)OC1C(C)C(O)C(C)/C=C\C=C(/C)C(=O)Nc1c(C)c(OC(C)=O)c2c(c1O)C(=O)C(C)=C1OCOC(/C(C)=C/C(C)=O)=C12 (stereo not given)	29 µM
Cc1cc(NS(=O)(=O)c2ccc(NC(=O)COC(=O)c3cccc4c(=O)c5ccccc5[nH]c34)cc2)no1	> 100 µM
NC(CO)C(=O)NCC(=O)O (stereo not given)	> 100 µM
NC(=O)CNC(=O)[C@@H]1C[C@@H](OCCC(=O)O)CN1C(=O)OCc1ccccc1	> 100 µM
CN(C)/C=C/c1c2c(nc3ccccc13)C(=O)c1ccccc1C2=O	2.71 µM
O=c1cc(O)c2c(O)cc(O)cc2o1	> 100 µM
COc1cccc(C=C2N=C(C)N(n3c(-c4ccccc4)nc4ccccc4c3=O)C2=O)c1	> 100 µM
O=C(Sc1sc(=S)sc1SC(=O)c1ccccc1)c1ccccc1	> 100 µM
Cc1cc2c(=O)cc(-c3ccc(F)cc3)oc2c(C(=O)O)c1C	> 100 µM
Cc1ccc(C)c2c(N=Nc3ccccc3[N+](=O)[O-])c(O)[nH]c12	> 100 µM
CN(C)c1ccc(/C=N/NC(=O)c2cccc3ccccc23)c(Cl)c1	> 100 µM
CC(=O)C1=C(C)N(c2ccccc2)C2(O)C=CC(=O)C3=C(O)c4ccccc4C(=O)C312 (stereo not given)	> 100 µM

###

Listed here are compounds together with their documented TGI.
Test system: MOLT-4 leukemia
Protocol Details: NCI tumour cell line growth inhibition, 48 h

Compound	TGI
COc1ccc(-c2nc3c(nc2-c2ccc(OC)cc2)N(C)S(=O)(=O)N=C3N)cc1	48.5 µM
Brc1ccc(C2SCc3nc4ccccc4n32)cc1 (centres undefined)	> 100 µM
COC(=O)C1=COc2c(n(C)c3ccccc23)-c2ccccc21	> 100 µM
COc1ccc(C(=O)OC2C(OC3C(O)COC(O[C@H]4C[C@H]5[C@@H]6CC=C7C[C@@H](O)CC[C@]7(C)[C@H]6CC[C@]5(C)[C@H]4[C@H](C)C(=O)CCC(C)C)C3OC(C)=O)OCC(O)C2O)cc1 (some centres undefined)	< 0.003 µM
CCOC(=O)C1=C(C)NC(C)=C(C(=O)OCC)C1c1ccc(C)cc1	74.6 µM
CC(C)(SCc1ccccc1)C(N)C(=O)O (centres undefined)	> 100 µM
Cc1ccc([N+](=O)[O-])cc1S(=O)(=O)Nc1ccc(C2=NN(S(=O)(=O)c3cc([N+](=O)[O-])ccc3C)C(c3ccco3)C2)cc1 (centres undefined)	> 100 µM
O=P1(Oc2ccccc2)NCc2ncccc2O1 (centres undefined)	> 100 µM
COc1cc2ccc(CC(N)=O)cc2cc1OC	> 100 µM

###

Tested on: OVCAR-3 ovarian
Protocol Details: NCI tumour cell line growth inhibition, 48 h

Compound	GI50
CN(C)CCOc1ccc(-c2cc(-c3ccc4c(c3)CC/C4=N\O)c(-c3ccncc3)o2)cc1	4.38 µM
CSc1nc(N)c2c(n1)NC(c1ccccc1)C1CCc3ccccc3C1=N2 (configuration not stated)	6.85 µM
CC(=O)/C(=C\c1c(-c2ccccc2)[nH]c2ccccc12)S(=O)(=O)c1ccccc1	1.54 µM
CC1(C)N=C(N)N=C(N)N1c1ccc(Cl)c(Cl)c1	5.27 µM
O=S(=O)(NCCO)c1cc[c]([Sb](=[O])([OH])[OH])cc1	> 100 µM
CN(C)c1ccc(C(=C2C=CC(=[N+](C)C)C=C2)c2ccccc2Cl)cc1	0.261 µM
Oc1ccccc1C=Nc1ccccc1N=Cc1ccccc1O.[Cu+2]	3.35 µM
Clc1ccc(N2CCC(N3CCCC3)CC2)cc1-c1nc2ccccc2[nH]1	17.8 µM
O=C(COc1ccc(-c2nc3cc(Cl)c(Cl)cc3[nH]2)cc1)N=Nc1c(O)[nH]c2ccccc12	2.7 µM
COc1ccc(C(=O)OC2C(OC3C(O)COC(O[C@H]4C[C@H]5[C@@H]6CC=C7C[C@@H](O)CC[C@]7(C)[C@H]6CC[C@]5(C)[C@H]4[C@H](C)C(=O)CCC(C)C)C3OC(C)=O)OCC(O)C2O)cc1 (some centres not stated)	0.0533 µM
CC12CCC(O)CC1=CCC1C2CCC2(C)C(c3cccnc3)=CCC12 (configuration not stated)	> 100 µM
N=C(N)SCc1ccc([N+](=O)[O-])cc1[N+](=O)[O-]	4.54 µM
COc1ccc2[nH]c(O)c(/C=c3/ccc4c(c3)N=C(c3ccc(F)cc3)N=4)c2c1	3.25 µM
CC(C)(C)OC(=O)NCCCCCCCCCCn1c2c(c3ccccc3c1=O)C(=O)c1ccccc1-2	> 100 µM
CCN(Cc1cccc(F)c1F)c1ccc(CO)c(Cl)c1	0.304 µM
CC(=O)c1cccc(NC(=O)c2ccc(NC3=C(Cl)C(=O)N(Cc4ccccc4)C3=O)cc2)c1	9.57 µM
CCN(CC)c1ccc(/C=C/C=C(/C#N)C(N)=S)cc1	10.9 µM

###

Listed here are compounds together with their documented GI50.
Tested on: SK-MEL-2 melanoma
Protocol Details: NCI tumour cell line growth inhibition, 48 h
Property: GI50

> print(dat)
                                   compound      tested.target  property  measured.result
1     Cc1cn2c(/C=N/N=C(N)N)c(-c3ccsc3)nc2s1  SK-MEL-2 melanoma      GI50          28.3 µM
2  C[C@@](O)(/C=C/[C@H]1CC=CC(=O)O1)[C@@H](C[C@@H](O)\C=C/C=C\C=C\CO)OP(=O)(O)O  SK-MEL-2 melanoma      GI50          19.8 µM
3  CCc1c(C)c2ccc(OCC(=O)N=Nc3c(O)[nH]c4ccccc34)c(C)c2oc1=O  SK-MEL-2 melanoma      GI50        > 33.3 µM
4  COC(=O)/C(=C\c1c(-c2ccccc2)[nH]c2ccccc12)S(C)(=O)=O  SK-MEL-2 melanoma      GI50          11.8 µM
5  COc1ccc(-c2nc(-c3nc4ccc(C(F)(F)F)cc4[nH]3)c3ccccn23)cc1  SK-MEL-2 melanoma      GI50         > 100 µM
6  Oc1c(CNCCNCc2cc(Cl)cc(Cc3ccccc3)c2O)cc(Cl)cc1Cc1ccccc1  SK-MEL-2 melanoma      GI50          1.82 µM
7  CCCCCSC1C2C(=O)C(Br)=CC13CCNc1c(O)c4c5c(c13)=[N+]2CCC=5C=N4 (centres undefined)  SK-MEL-2 melanoma      GI50           2.1 µM
8     CCN(CC)c1ccc(/C=C/C=C(/C#N)C(N)=S)cc1  SK-MEL-2 melanoma      GI50          20.9 µM
9  CC(=O)c1cccc(NC(=O)c2ccc(NC3=C(Cl)C(=O)N(Cc4ccccc4)C3=O)cc2)c1  SK-MEL-2 melanoma      GI50          2.38 µM

###

System: NCI/ADR-RES ovarian
Protocol Details: NCI tumour cell line growth inhibition, 48 h
Where a SMILES comes first, the peptide text is derived from it. The star is where a group is joined. Cbz = O=C(OCc1ccccc1)*; Boc = CC(C)(C)OC(=O)*; OBn = c1ccc(CO*)cc1
Property: TGI

Compound	Property	Measured Result
O=C(COc1ccc(-c2nc3cc(Cl)c(Cl)cc3[nH]2)cc1)N=Nc1c(O)[nH]c2ccccc12	TGI	> 100 µM
NC(=O)C1N=NSC1NC(=O)c1ccc([N+](=O)[O-])cc1 (stereo not drawn)	TGI	> 100 µM
CCOC(=O)CNC(=O)C(C)NC(=O)C(NC(=O)OCc1ccccc1)C(C)C (stereo not drawn) (Cbz-Val-Ala-Gly-OEt; configuration not given here)	TGI	> 100 µM
CCCCN1C(=O)CS/C1=N/Nc1nc2c([nH]1)c(=O)n(C)c(=O)n2C	TGI	> 100 µM
CC(C)CC(NC(=O)C(Cc1ccccc1)NC(=O)C(Cc1ccccc1)NC(=O)OC(C)(C)C)C(=O)OCc1ccccc1 (stereo not drawn) (Boc-Phe-Phe-Leu-OBn; configuration not given here)	TGI	> 100 µM
O=C1CCCC2=C1CC1=C(CCCC1=O)N2c1cccc([N+](=O)[O-])c1	TGI	> 100 µM
C#CC(=O)OCC#CCOC(=O)C#C	TGI	76.5 µM
CC(=O)C1=C(C)N(c2ccccc2)C2(O)C=CC(=O)C3=C(O)c4ccccc4C(=O)C312 (stereo not drawn)	TGI	37.5 µM
CCc1c(C)c2ccc(OCC(=O)N=Nc3c(O)[nH]c4ccccc34)c(C)c2oc1=O	TGI	> 33.3 µM
CCN1C(=O)N(CC)C2C1NN=c1s/c(=C\c3cccc([N+](=O)[O-])c3)c(=O)n12 (stereo not drawn)	TGI	0.703 µM
COc1cc2cc(C(=O)N3CC(CCl)c4c3cc(O)c3ccccc43)[nH]c2c(OC)c1OC (stereo not drawn)	TGI	> 50 µM
Nc1nc(-c2cc(-c3cccc4ccccc34)nc(N)n2)cc(-c2cccc3ccccc23)n1	TGI	> 100 µM
Cc1nc2cccc([N+](=O)[O-])c2n1CCCN(C)C	TGI	> 100 µM
O=C(c1ccccc1)c1nn(-c2ccccc2)c2nc3nc(-c4ccccc4)cc(=O)n3nc12	TGI	74.5 µM
COc1ccc(C(=O)OC2C(OC3C(O)COC(O[C@H]4C[C@H]5[C@@H]6CC=C7C[C@@H](O)CC[C@]7(C)[C@H]6CC[C@]5(C)[C@H]4[C@H](C)C(=O)CCC(C)C)C3OC(C)=O)OCC(O)C2O)cc1 (stereo partly drawn)	TGI	30 µM
COc1ccccc1/C=C/c1nc2ccccc2o1	TGI	> 10 µM
CC12CCC(O)CC1=CCC1C2CCC2(C)C(c3cccnc3)=CCC12 (stereo not drawn)	TGI	> 100 µM
Cc1cccc(C(=O)O)c1CC1NCCC2c3ccccc3NC12 (stereo not drawn)	TGI	> 100 µM
